Target: Cannabinoid receptor 2 (Homo sapiens)
Sequence (P34972 whole entry): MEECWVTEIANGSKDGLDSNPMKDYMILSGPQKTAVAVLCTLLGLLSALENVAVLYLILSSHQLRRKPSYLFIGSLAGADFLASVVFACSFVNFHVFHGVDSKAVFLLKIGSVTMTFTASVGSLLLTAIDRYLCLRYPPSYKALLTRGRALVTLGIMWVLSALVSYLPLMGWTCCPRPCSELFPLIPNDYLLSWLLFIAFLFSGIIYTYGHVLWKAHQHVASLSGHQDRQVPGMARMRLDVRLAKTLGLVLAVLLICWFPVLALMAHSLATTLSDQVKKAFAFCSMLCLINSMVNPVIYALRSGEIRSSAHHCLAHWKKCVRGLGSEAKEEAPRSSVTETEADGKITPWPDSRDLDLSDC
Assay: Displacement of [3H]CP-55940 from human CB2 receptor expressed in CHO cells after 1 hr by liquid scintillation spectrophotometry
Format: cell-based
pKi: −log10 of the molar value.
Tag: Criterion met if measured pKi is not below 7, Criterion not met if it is.

Answered cases to consult:
CCCCCC(C)(C)c1cc(Br)c2c(c1)OC(C)(C)[C@@H]1CC=C(C)C[C@@H]21 ... Criterion met
CCCC(C)(C)c1cc(Br)c2c(c1)OC(C)(C)[C@@H]1CC=C(C)C[C@@H]21 ... Criterion not met
CCCCCCC(C)(C)c1cc(Br)c2c(c1)OC(C)(C)[C@@H]1CC=C(C)C[C@@H]21 ... Criterion met

Now consider the entry below.
Q. Record CCCCCc1cc(Br)c2c(c1)OC(C)(C)[C@@H]1CC=C(C)C[C@@H]21 ; criterion: pKi no lower than 7. Met?
A. Criterion not met

====

Experiment: Selectivity ratio of IC50 for CB1 receptor in Sprague-Dawley rat brain membranes to IC50 for human CB2 receptor
Assay type: cell membranes
Settings: Membrane
measure-name: Ratio Ki
Reply with the value as a number alone.

CCCCCC(C)(C)c1cc(Br)c2c(c1)OC(C)(C)[C@@H]1CC=C(C)C[C@@H]21 ... 52

Q. Reported Ratio Ki, molecule CCCC(C)(C)c1ccc2c(c1)OC(C)(C)[C@@H]1CC=C(C)C[C@@H]21 : ____
A. 294

Q. Return reported Ratio Ki; argument: CCCCCCC(C)(C)c1cc(Br)c2c(c1)OC(C)(C)[C@@H]1CC=C(C)C[C@@H]21
A. 27

Q. Please report the recorded Ratio Ki for CCCC(C)(C)c1cc(Br)c2c(c1)OC(C)(C)[C@@H]1CC=C(C)C[C@@H]21 .
A. 38

Q. Please look up its Ratio Ki: CCCCC(C)(C)c1cc(Br)c2c(c1)OC(C)(C)[C@@H]1CC=C(C)C[C@@H]21
A. 16

Q. # get_value(readout='Ratio Ki', item= CCCCCc1cc(Br)c2c(c1)OC(C)(C)[C@@H]1CC=C(C)C[C@@H]21 )
A. 18

====

Target: Cannabinoid receptor 2 (Homo sapiens)
Test: Binding affinity to CB2 receptor
measure-name: Ki (nM)
// return numeric value only (unit: nM, not printed)

CCCCCCC(C)(C)c1ccc2c(c1)OC(C)(C)[C@@H]1CC=C(C)C[C@@H]21 ... 2.9

Q. # query: Ki of entry CCCCCCC(C)(C)c1ccc2c(c1)OC(C)(C)[C@@H]1CC=C(CO)C[C@@H]21
A. 0.032
